These entries and their values trace back to paper PMC9860392.

Target: T1, FL Twinkle (mitochondrial helicase) (Homo sapiens, UniProt Q96RR1 43-684)
T1 sequence: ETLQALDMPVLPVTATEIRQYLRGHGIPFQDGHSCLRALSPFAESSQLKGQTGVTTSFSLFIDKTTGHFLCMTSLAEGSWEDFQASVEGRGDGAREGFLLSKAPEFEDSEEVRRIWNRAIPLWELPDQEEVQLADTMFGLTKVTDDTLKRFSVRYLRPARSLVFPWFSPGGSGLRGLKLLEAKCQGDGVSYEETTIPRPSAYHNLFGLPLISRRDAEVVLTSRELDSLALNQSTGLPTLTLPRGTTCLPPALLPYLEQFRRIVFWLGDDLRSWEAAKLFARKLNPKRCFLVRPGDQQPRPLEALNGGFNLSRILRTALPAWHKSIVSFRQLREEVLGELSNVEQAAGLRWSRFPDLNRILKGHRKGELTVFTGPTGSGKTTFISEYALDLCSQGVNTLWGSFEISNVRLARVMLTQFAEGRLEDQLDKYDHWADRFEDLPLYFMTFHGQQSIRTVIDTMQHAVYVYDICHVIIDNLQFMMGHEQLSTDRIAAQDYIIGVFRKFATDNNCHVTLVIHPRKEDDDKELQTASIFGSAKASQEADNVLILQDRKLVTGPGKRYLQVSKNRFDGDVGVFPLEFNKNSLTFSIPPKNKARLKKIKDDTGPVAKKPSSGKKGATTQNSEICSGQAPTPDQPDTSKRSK
Test: fluorescence anisotropy; no NaCl added; 50 mM Tris acetate pH 7.5, 10% glycerol, 0.05% Tween-20, 0.5 mM DTT, 0 or 50 mM NaCl; 2.5 nM DNA; no Mg2+ or nucleotide listed; temperature not stated
Conditions: protein: recombinant; tags: SUMO tag removed (ULP1); chain copies: 6; label: 3' fluorescein-T; single strand
reportedEndpoint: pKd
As a rule, pKd stands for the negative log10 of the concentration, concentration in M.

>  <binder>
TGTGTTAGTTGGGGGGTGACTGTTAAAAGT (ssDNA) [30 nt ssDNA]

>  <pKd>
8.80

$$$$

## Input Please give the measured pKd for this binder: TGAACACT (ssDNA) [8 nt ssDNA]
## Output 8.05

## Input Please give the measured pKd for this binder: TGCTATAACTCTTGAACACT (ssDNA) [20 nt ssDNA]
## Output 8.72

## Input Please give the measured pKd for this binder: ATAACTCTTGAACACT (ssDNA) [16 nt ssDNA]
## Output 8.55

## Input Please give the measured pKd for this binder: CTCTTGAACACT (ssDNA) [12 nt ssDNA]
## Output 8.28

## Input Please give the measured pKd for this binder: AACTCTTGAACACT (ssDNA) [14 nt ssDNA]
## Output 8.48
